- Measured on: full-length human AR (Homo sapiens, UniProt P10275)
- Construct: expression vector encoding full-length human AR
- Sequence (P10275 1-920): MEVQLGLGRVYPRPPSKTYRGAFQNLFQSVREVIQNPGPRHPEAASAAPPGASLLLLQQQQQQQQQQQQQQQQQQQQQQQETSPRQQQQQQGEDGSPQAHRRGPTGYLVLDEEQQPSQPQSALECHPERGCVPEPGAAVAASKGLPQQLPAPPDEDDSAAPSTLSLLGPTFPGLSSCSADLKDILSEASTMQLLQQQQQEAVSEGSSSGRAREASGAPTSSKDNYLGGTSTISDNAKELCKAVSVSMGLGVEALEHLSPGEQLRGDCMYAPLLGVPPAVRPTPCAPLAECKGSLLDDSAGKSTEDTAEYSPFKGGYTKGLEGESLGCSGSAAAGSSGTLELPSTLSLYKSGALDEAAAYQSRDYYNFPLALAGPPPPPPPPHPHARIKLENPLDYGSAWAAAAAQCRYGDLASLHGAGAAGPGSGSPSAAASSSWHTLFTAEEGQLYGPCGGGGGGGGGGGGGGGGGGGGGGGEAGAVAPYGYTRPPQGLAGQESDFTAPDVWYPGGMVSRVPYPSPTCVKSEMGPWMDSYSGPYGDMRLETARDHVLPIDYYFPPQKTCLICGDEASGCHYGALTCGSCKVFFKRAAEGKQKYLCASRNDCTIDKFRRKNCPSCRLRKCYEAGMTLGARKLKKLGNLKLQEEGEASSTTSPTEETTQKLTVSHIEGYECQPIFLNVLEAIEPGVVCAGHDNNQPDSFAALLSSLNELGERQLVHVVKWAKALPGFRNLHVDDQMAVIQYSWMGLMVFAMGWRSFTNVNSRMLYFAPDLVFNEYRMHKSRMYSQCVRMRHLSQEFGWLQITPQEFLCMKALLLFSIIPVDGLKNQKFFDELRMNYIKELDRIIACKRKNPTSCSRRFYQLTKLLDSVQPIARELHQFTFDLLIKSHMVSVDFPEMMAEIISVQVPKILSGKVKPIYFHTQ
- Measurement notes: AR antagonism, reporter gene assay in hAR/HEK293 cells
- Recorded conditions: HEK293 cells stably transfected with full-length human AR and androgen responsive luciferase reporter; co-treated with submaximal testosterone (usually 0.45 nM); 1% DMSO; triplicates

Compound	Measured on	Result units	IC50
CCN(c1ccc(C#N)c(C(F)(F)F)c1)[C@@H]1CCCN(c2ccncc2F)C1 [Ex. 160]	full-length human AR (Homo sapiens, UniProt P10275)	nM	27
CCN(c1ccc(C#N)c(C(F)(F)F)c1)C1C=C(n2ccnc2)C2(CC1)CC2 (stereo not shown) [Ex. 107]	full-length human AR (Homo sapiens, UniProt P10275)	nM	51
CCN(c1ccc(C#N)c(C(F)(F)F)c1)[C@H]1CCC[C@@H](c2ccncc2)C1 (relative stereo) [Ex. 61]	full-length human AR (Homo sapiens, UniProt P10275)	nM	35
CN(c1ccc(C#N)c(C(F)F)c1)C1C=C(n2ccnc2)CCC1(C)C (single isomer, unassigned) [Ex. 240(b)]	full-length human AR (Homo sapiens, UniProt P10275)	nM	52
